Recorded measurements of pEC50, one per entry
- target_of_assay: T1, recombinant human tau, isoform Tau-F of 441 aa (hTau40) (human, UniProt P10636 1-758)
- T1 construct: Bought from rPeptide (Bogart, GA, USA); coated on ELISA plates, blotted, or spotted as overlapping peptides; also called full-length tau; rTau
- protocol: direct ELISA on coated recombinant tau (rTau)
# pEC50: negative log10 of molar concentration; output just the value

Consider the reported pEC50 for these binders:
- binder: "recombinant human antibody NI-105.60E7 (germlined) (antibody, human IgG1, V domains shown, Complete recombinant human IgG1 by the methods) VH: EVQLVESGGGFVRPGGSITLSCATSGFTFTKAWMTWVRQAPVKGLEWIGHIKTRIEGATTDYAAPVEGRFTISRDDSKNMVYLQMNSLKTEDSGIYYCSTDFDYWGQGTLVTVSS VL: DVVMTQSPLSLPVTLGQPASISCTSSQSLLYSDGNTYLNWFQQRPGQSPRRLMYKVSKRDPGVPDRFSGSGSGTDFTLSISRVEAEDVGVYYCMQGSLWPRYTFGQGTKVEIK"
  pEC50: 9.74
- binder: "recombinant human antibody NI-105.14E2 (germlined) (antibody, human IgG1, V domains shown, Complete recombinant human IgG1 by the methods) VH: EVQLVQSGAEVKKPGDSLRISCKASGYNFPNYWIGWVRQMPGKGLEWMGIIYPGDSDIRYSPSFQGHVTISSDKSITTAYLQWTSLKVADSAMYYCARVERPDKGGWFGPWGQGTLVTVSS VL: DIVMTQSPDSLAVSLGERATINCKSSQTLLYTSNNQNYLAWYQHKPGQPPKVLIYWASTREYGVPDRFSGSGSGTDFTLTISSLQPEDVAVYYCQQYYNSPYTFGQGTKLEIK"
  pEC50: 9.19

Need pEC50, item recombinant human antibody NI-105.17C1 (not germlined, as used in Table 7) (antibody, human IgG1, V domains shown, Complete human IgG1 by the methods) VH: EVQLVQSGAEVKKPGESLKISCKAFGYSFTNFWIGWVRQVPGKGLEWVGIIYPGDSDTRYSPSFQGQVTISADKSIDTAYLQWGHLKASDSAMYFCARRGFWTGSQIEYWGQGTLVTVSS VL: QSALTQPPSASGSPGHSVTISCTGTSSDVGNYSFVSWYQQYPGKAPKVIIYDVSKRSSGVPDRFFGSKSANTASLTVSGVQEEDEADYFCSSYGGSKYPWVFGGGTKLTVL
8.48
